TESTED_ON: Sushi domains (SD1/2) protein
MEASUREMENT_NOTES: Fluorescence polarization (FP) competition assay with AJAP-1probe, calculated Ki
Assay type: binding
TEST_PARAMETERS: Table 16, ncAAs incorporated peptides; read-out: Ki (nM) mean ± SEM
Non-standard residues stand in square brackets, D forms with d. Residues, ends and D or L forms follow the SMILES beside them. *: point of attachment. 1Nal = N[C@@H](Cc1cccc2ccccc12)C(=O)O; Bn = c1ccc(C*)cc1
Provide the reported Ki of each item.
One number for each entry, in nM.

MOLECULE	Ki / nM
CC(=O)N[C@@H](CCC(=O)O)C(=O)N[C@@H](CC(=O)O)C(=O)N[C@@H](CC(=O)O)C(=O)N[C@@H](CO)C(=O)N[C@@H](CC(=O)O)C(=O)N[C@H](C(=O)N[C@@H](Cc1c[nH]c2ccccc12)C(=O)N[C@@H](Cc1c[nH]c2ccccc12)C(=O)N[C@@H](Cc1cccc2ccccc12)C(=O)NCC(=O)N[C@@H](C)C(=O)N[C@@H](CC(=O)O)C(=O)N[C@H](C(=O)N[C@@H](CC(=O)O)C(N)=O)[C@@H](C)O)C(C)C (Ac-EDDSDVWW[1Nal]GADTD-NH2)	114

Field: next molecule
In: Request body: readout Ki, system Sushi domains (SD1/2) protein, query CC[C@H](C)[C@H](NC(=O)[C@H](Cc1ccc(OCc2ccccc2)cc1)NC(=O)[C@H](CC(=O)O)NC(=O)[C@H](CC(=O)O)NC(=O)[C@H](CC(=O)O)NC(=O)[C@H](CCC(=O)O)NC(C)=O)C(=O)N[C@@H](CC(=O)O)C(=O)N[C@@H](Cc1c[nH]c2ccccc12)C(=O)NCC(=O)N1CCC[C@H]1C(=O)N[C@H](C(=O)N[C@@H](CO)C(=O)N[C@@H](CC(=O)O)C(=O)N[C@@H](CC(=O)O)C(=O)N[C@@H](CC(=O)O)C(N)=O)[C@@H](C)O [Peptide 35] (Ac-EDDDY(Bn)IDWGPTSDDD-NH2) . Return the value.
Out: 9.5
